Hey, just so you know, these numbers are from patent US20260337208A1.

# IC50 annotations
Target: JAK3 (Homo sapiens, UniProt P52333)
Sequence (P52333 1-1124): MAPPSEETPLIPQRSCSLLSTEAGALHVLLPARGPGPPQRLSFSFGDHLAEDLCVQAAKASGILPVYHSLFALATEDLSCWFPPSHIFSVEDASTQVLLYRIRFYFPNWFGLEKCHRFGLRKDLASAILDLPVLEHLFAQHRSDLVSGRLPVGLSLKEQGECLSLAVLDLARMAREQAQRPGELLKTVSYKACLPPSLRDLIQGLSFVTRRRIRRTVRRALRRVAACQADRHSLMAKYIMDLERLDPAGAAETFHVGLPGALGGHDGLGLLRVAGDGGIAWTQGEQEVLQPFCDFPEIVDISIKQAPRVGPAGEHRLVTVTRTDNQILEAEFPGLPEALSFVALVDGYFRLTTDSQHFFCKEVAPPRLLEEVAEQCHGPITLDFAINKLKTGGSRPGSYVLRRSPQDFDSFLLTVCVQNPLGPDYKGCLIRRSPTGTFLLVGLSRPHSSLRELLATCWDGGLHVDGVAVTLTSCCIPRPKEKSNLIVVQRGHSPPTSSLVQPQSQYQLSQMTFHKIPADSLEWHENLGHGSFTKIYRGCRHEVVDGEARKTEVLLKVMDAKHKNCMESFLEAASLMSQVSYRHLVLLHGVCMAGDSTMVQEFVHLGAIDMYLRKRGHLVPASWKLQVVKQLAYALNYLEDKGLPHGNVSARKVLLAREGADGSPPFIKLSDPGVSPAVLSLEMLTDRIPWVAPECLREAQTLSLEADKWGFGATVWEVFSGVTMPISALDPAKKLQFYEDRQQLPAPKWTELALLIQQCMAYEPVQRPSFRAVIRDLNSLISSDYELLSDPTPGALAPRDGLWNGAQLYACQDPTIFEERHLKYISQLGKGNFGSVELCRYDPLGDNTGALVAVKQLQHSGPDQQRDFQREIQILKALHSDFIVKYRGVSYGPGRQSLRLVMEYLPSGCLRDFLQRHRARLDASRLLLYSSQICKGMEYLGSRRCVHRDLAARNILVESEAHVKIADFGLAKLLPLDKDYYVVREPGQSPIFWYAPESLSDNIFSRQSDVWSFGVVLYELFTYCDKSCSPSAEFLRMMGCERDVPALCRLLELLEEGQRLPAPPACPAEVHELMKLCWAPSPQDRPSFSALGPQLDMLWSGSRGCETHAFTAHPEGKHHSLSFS
Experiment: Biochemical potency on JAK3, TR-FRET (LANCE Ultra kinase assay)
Details: ATP corresponding to Km; cell-free; read-out: JAK3 inhibitory activity (pIC50) (converted)

Worked examples, 5 molecules total:
molecule="COc1cc2c(cc1-n1nc(C(=O)NCCN3CC[C@H](C(=O)O[C@@H]4CCN(C)C4)C3)c3cnc(-c4cnn5cccnc45)cc31)OCCN2 [Example 56]" assayed_target="JAK3 (Homo sapiens, UniProt P52333)" observation_type=IC50 assay_result="≤ 5.01 nM"
molecule="CCOC(=O)C1CCN(CCNC(=O)c2nn(-c3cc4c(cc3OC)NCCO4)c3cc(-c4cnn5cccnc45)ncc23)CC1 [Example 9]" assayed_target="JAK3 (Homo sapiens, UniProt P52333)" observation_type=IC50 assay_result="≤ 5.01 nM"
molecule="COc1cc2c(cc1-n1nc(C(=O)NCCN3CCC(C(=O)OC(C)C)CC3)c3cnc(-c4cnn5cccnc45)cc31)OCCN2 [Example 45]" assayed_target="JAK3 (Homo sapiens, UniProt P52333)" observation_type=IC50 assay_result="≤ 5.01 nM"
molecule="COc1cc2c(cc1-n1nc(C(=O)NCCN3CCC(C(=O)OC4CN(C)C4)CC3)c3cnc(-c4cnn5cccnc45)cc31)OCCN2 [Example 21]" assayed_target="JAK3 (Homo sapiens, UniProt P52333)" observation_type=IC50 assay_result="≤ 5.01 nM"
molecule="COc1cc2c(cc1-n1nc(C(=O)NCCN3CCC(C(=O)OC4CCOCC4)CC3)c3cnc(-c4cnn5cccnc45)cc31)OCCN2 [Example 17]" assayed_target="JAK3 (Homo sapiens, UniProt P52333)" observation_type=IC50 assay_result="≤ 5.01 nM"

Attention now shifts to the item below.
Incoming: Entry CCOC(=O)C1(F)CCN(CCNC(=O)c2nn(-c3cc4c(cc3OC)NCCO4)c3cc(-c4cnn5cccnc45)ncc23)CC1 [Example 28] has what IC50?
Outgoing: ≤ 5.01 nM

---

Molecular target: JAK2 (Homo sapiens, UniProt O60674)
Sequence (O60674 whole entry): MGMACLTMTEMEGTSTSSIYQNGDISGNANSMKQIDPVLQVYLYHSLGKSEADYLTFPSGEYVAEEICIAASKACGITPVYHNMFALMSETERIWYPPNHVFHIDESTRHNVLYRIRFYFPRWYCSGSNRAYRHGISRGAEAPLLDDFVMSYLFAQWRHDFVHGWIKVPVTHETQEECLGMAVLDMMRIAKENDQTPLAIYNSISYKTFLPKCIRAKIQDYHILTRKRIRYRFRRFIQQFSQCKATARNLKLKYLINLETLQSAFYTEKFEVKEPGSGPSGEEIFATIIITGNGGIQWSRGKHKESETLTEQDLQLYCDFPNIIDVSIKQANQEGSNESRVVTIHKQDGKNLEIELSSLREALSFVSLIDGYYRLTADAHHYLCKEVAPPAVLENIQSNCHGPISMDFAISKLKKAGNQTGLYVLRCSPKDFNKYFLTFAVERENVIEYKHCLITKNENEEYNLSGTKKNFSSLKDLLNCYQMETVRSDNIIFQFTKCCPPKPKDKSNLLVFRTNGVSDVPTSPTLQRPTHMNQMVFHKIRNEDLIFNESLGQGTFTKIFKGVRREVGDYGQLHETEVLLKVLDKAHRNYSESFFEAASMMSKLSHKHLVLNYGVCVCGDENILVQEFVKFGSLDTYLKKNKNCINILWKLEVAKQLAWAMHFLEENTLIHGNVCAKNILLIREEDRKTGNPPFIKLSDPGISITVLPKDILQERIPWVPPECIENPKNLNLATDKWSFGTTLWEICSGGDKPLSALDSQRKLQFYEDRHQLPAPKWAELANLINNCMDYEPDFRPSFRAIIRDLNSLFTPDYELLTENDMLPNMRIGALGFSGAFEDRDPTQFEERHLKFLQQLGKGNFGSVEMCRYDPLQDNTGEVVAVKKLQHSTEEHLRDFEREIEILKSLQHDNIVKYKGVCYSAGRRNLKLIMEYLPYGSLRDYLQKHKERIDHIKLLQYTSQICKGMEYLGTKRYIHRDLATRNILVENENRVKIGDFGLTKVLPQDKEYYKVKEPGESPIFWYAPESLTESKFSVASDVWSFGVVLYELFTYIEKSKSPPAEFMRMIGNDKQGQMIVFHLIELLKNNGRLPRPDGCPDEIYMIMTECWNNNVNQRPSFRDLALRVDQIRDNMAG
Assay: Biochemical potency on JAK2, TR-FRET (LANCE Ultra kinase assay)
Conditions: ATP corresponding to Km; cell-free; read-out: JAK2 inhibitory activity (pIC50) (converted)
OBSERVATION TYPE: IC50

compound="COc1cc2c(cc1-n1nc(C(=O)NCCN3CC[C@H](C(=O)O[C@@H]4CCN(C)C4)C3)c3cnc(-c4cnn5cccnc45)cc31)OCCN2 [Example 56]" observation_type=IC50 assay_result="≤ 5.01 nM"
compound="COc1cc2c(cc1-n1nc(C(=O)NCCN3CCC(C(=O)OC4CN(C(C)C)C4)CC3)c3cnc(-c4cnn5cccnc45)cc31)OCCN2 [Example 57]" observation_type=IC50 assay_result="≤ 5.01 nM"

Attention now shifts to the item below.
Incoming: Entry COc1cc2c(cc1-n1nc(C(=O)NCCN3CCC(C(=O)O[C@H]4CCN(C)C4)CC3)c3cnc(-c4cnn5cccnc45)cc31)OCCN2 [Example 24] has what IC50?
Outgoing: ≤ 5.01 nM

---

# IC50 annotations
Target: JAK1 (Homo sapiens, UniProt P23458)
Sequence (P23458 whole entry): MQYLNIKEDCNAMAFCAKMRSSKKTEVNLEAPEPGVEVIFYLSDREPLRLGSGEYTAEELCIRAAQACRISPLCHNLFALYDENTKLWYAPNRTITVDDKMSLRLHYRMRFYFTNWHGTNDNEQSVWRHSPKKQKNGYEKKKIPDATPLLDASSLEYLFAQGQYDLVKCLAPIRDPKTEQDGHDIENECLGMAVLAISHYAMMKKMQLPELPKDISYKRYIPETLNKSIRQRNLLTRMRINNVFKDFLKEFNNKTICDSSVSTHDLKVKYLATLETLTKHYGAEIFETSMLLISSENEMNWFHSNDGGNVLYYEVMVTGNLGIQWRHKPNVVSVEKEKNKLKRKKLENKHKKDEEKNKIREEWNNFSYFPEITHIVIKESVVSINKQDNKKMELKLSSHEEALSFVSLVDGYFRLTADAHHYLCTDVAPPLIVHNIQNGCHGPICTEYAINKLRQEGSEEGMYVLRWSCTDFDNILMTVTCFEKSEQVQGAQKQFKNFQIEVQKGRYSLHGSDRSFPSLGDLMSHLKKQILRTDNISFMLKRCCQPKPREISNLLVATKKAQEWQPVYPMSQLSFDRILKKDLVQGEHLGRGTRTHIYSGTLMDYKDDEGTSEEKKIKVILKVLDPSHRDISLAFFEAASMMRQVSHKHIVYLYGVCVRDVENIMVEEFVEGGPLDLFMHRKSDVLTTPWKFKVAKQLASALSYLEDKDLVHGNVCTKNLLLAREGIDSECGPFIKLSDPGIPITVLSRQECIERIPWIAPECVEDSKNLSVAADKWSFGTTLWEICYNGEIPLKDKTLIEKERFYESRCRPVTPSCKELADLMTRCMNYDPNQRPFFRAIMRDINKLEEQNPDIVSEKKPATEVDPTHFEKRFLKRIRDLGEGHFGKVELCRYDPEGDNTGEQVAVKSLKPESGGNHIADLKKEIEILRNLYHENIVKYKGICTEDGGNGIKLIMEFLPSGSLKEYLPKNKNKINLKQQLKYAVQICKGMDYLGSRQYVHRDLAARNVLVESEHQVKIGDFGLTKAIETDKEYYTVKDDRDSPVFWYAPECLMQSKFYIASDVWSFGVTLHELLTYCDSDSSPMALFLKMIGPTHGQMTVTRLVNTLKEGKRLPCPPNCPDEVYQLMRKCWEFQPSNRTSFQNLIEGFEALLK
Assay: Biochemical potency on JAK1, TR-FRET (LANCE Ultra kinase assay)
Conditions: ATP corresponding to Km; cell-free; read-out: JAK1 inhibitory activity (pIC50) (converted)
Description: The objective of this study was to assess the capability of compounds to inhibit all 4 JAK isoforms activity in a cell-free environment. Assay for JAK 1, JAK 2, JAK 3 and TYK2 were performed by Time-resolved fluorescence resonance energy transfer (TR-FRET) technology. It consists in the interaction of two labelled binding partners detected by the energy transfer from an excited donor to an acceptor dye and measurement of light emission by the acceptor dye. LANCE Ultra kinase assay was used. […]

Worked examples, 6 molecules total:
molecule="CCC(C)OC(=O)C1CCN(CCNC(=O)c2nn(-c3cc4c(cc3OC)NCCO4)c3cc(-c4cnn5cccnc45)ncc23)CC1 (stereo not shown)" assayed_target="JAK1 (Homo sapiens, UniProt P23458)" assay_result="≤ 5.01 nM"
molecule=COCCOC(=O)C1CCN(CCNC(=O)c2nn(-c3cc4c(cc3OC)NCCO4)c3cc(-c4cnn5cccnc45)ncc23)CC1 assayed_target="JAK1 (Homo sapiens, UniProt P23458)" assay_result="≤ 5.01 nM"
molecule=COc1cc2c(cc1-n1nc(C(=O)NCCN3CCC(C(=O)OCC4(C#N)CC4)CC3)c3cnc(-c4cnn5cccnc45)cc31)OCCN2 assayed_target="JAK1 (Homo sapiens, UniProt P23458)" assay_result="≤ 5.01 nM"
molecule=CCCOC(=O)CN(C)CCNC(=O)c1nn(-c2cc3c(cc2OC)NCCO3)c2cc(-c3cnn4cccnc34)ncc12 assayed_target="JAK1 (Homo sapiens, UniProt P23458)" assay_result="5.01 to 50.1 nM"
molecule=COc1cc2c(cc1-n1nc(C(=O)NCCCN3CCC(C(=O)OC4CCN(C)CC4)CC3)c3cnc(-c4cnn5cccnc45)cc31)OCCN2 assayed_target="JAK1 (Homo sapiens, UniProt P23458)" assay_result="5.01 to 50.1 nM"
molecule=CCOC(=O)C1CCN(CCOC(=O)Nc2nn(-c3cc4c(cc3OC)NCCS4)c3cc(-c4cnn5cccnc45)ncc23)CC1 assayed_target="JAK1 (Homo sapiens, UniProt P23458)" assay_result="≤ 5.01 nM"

Incoming: Entry `COc1cc2c(cc1-n1nc(C(=O)NCCN3CCC(C(=O)OCC(C)(C)C#N)CC3)c3cnc(-c4cnn5cccnc45)cc31)OCCN2` has what IC50?
Outgoing: ≤ 5.01 nM

Incoming: Entry `COc1cc2c(cc1-n1nc(C(=O)NCCN3CC[C@@H](C(=O)OCC(C)(C)C#N)C3)c3cnc(-c4cnn5cccnc45)cc31)OCCN2` has what IC50?
Outgoing: ≤ 5.01 nM

Incoming: Entry `COc1cc2c(cc1-n1nc(C(=O)NCCN3CCC(C(=O)O[C@H]4CCN(C)C4)CC3)c3cnc(-c4cnn5cccnc45)cc31)OCCN2` has what IC50?
Outgoing: ≤ 5.01 nM

Incoming: Entry `COc1cc2c(cc1-n1nc(C(=O)NCCN3CCC(C(=O)OC4CN(C)C4)CC3)c3cnc(-c4cnn5cccnc45)cc31)OCCN2` has what IC50?
Outgoing: ≤ 5.01 nM

Incoming: Entry `CCOC(=O)C1CCN(CCNC(=O)c2nn(-c3cc4c(cc3OC)NCCC4)c3cc(-c4cnn5cccnc45)ncc23)CC1` has what IC50?
Outgoing: 5.01 to 50.1 nM

Incoming: Entry `COc1cc2c(cc1-n1nc(C(=O)OCCCN3CCN(C)CC3)c3cnc(-c4cnn5cccnc45)cc31)SCCN2` has what IC50?
Outgoing: ≤ 5.01 nM

Incoming: Entry `CCOC(=O)C1CCN(CCNC(=O)c2nn(-c3cc4c(cc3OC)NCCO4)c3cc(-c4cnn5cccnc45)ncc23)CC1` has what IC50?
Outgoing: ≤ 5.01 nM
